Overview of recorded growth for various molecules
- Tested on: IGROV1 ovarian
- assay-overview: NCI-60 one-dose screen, 48 h (100 = growth as untreated, 0 = no growth, -100 = all killed)
- assay-conditions: 10 µM unless noted
Compounds without any hit were thinned out: in the full panel of roughly 83,000, 20% have a hit. The source made the active and inactive calls. How the source made its calls: active means growth percent below 10; inactive means the rest.

{"columns": ["compound-structure", "growth"],
 "data": [
  ["C#CCOc1ccc(-c2csc(NC(=O)C=C)n2)cc1NS(=O)(=O)c1cccc2c(N(C)C)cccc12", "32.3% (inactive)"],
  ["Cn1cc(-c2cc3ncnc(Nc4ccc(CC(=O)Nc5nc(C(C)(C)C)cs5)cc4)c3s2)cn1", "12% (inactive)"],
  ["CCN1CCN(c2ccc(NC(=O)Nc3ccc4c(ccn4-c4ccnc(C(=O)NC)c4)c3)cc2C(F)(F)F)CC1", "79.3% (inactive)"],
  ["O=C1Nc2cc(Cl)ccc2/C1=C\\c1ccc(OCc2ccccc2)cc1", "91.6% (inactive)"],
  ["COc1ccc([C@@H]2C(=O)N(c3cc(OC)c(OC)c(OC)c3)[C@H]2c2ccc(OC)c(O)c2)cc1", "22.5% (inactive)"],
  ["COc1ccc(-c2cc(-c3ccc(N4CCOCC4)cc3)n3c(n2)nc2ccccc23)cc1OC", "95.1% (inactive)"],
  ["CC1(C)CC[C@]23CC[C@]4(C)[C@H](CC[C@@H]5[C@@]6(C)CC[C@H](NCO)C(C)(C)[C@@H]6CC[C@]54C)[C@H]2[C@H]1OC3", "64.8% (inactive)"],
  ["CSc1ccc(/C(=N/N=C(N)N)c2ccc(Cl)cc2)cc1", "4.76% (active)"],
  ["COC(=O)c1cccc(NC2=CC(=O)C(C)=C(C)C2=O)c1", "89.5% (inactive)"]
]}

====

- Tested on: SF-295 CNS
- assay-overview: NCI-60 one-dose screen, 48 h (100 = growth as untreated, 0 = no growth, -100 = all killed)
- assay-conditions: 10 µM unless noted
This is part of a sample that, as a whole, favours compounds with a hit. Of some 83,000 tested, about 20% had one in any assay.

{"columns": ["compound-structure", "experimental-target", "growth, %"],
 "data": [
  ["CCCNNC(=O)c1ccc(-c2ccc(NC(=O)CCCCCCC(=O)N[C@H](C(=O)N3C[C@H](O)C[C@H]3C(=O)N[C@@H](C)c3ccc(-c4scnc4C)cc3)C(C)(C)C)cc2)cc1", "SF-295 CNS", 46.8],
  ["C#C[C@]1(O)CC[C@H]2[C@@H]3CC=C4c5sc(NCc6ccccc6)nc5CC[C@]4(C)[C@H]3CC[C@@]21C", "SF-295 CNS", -57.6],
  ["CN(C)c1ccc(-c2cc(-c3c[nH]c4ccccc34)nc(N)c2C#N)cc1", "SF-295 CNS", 26.8],
  ["C/C(=C(\\c1ccc(O)cc1)c1ccc(OCCN2CCCCCC2)cc1)c1ccc(Cl)cc1", "SF-295 CNS", -93.7],
  ["CCN(CC)c1ccc(/C=N/NC(=O)c2ccc(NS(C)(=O)=O)cc2)c(O)c1", "SF-295 CNS", 9.79],
  ["CCCCc1nc2c(N)nc3ccccc3c2n1Cc1ccc(OC)cc1", "SF-295 CNS", 56.5],
  ["NS(=O)(=O)c1ccc(Nc2nc(N/N=C/C=C/c3ccccc3)nc(Nc3ccccc3)n2)cc1", "SF-295 CNS", 44.5],
  ["C#Cc1nc(/C=C/C(=O)NO)cs1", "SF-295 CNS", 46.3],
  ["CC(C)=CCC[C@](C)(O)[C@H]1CC[C@]2(C)[C@@H]1CC[C@@H]1[C@@]3(C)CC[C@H](N)C(C)(C)[C@@H]3CC[C@]12C", "SF-295 CNS", 93.2]
]}

====

- Tested on: MALME-3M melanoma
- assay-overview: NCI-60 one-dose screen, 48 h (100 = growth as untreated, 0 = no growth, -100 = all killed)
- assay-conditions: 10 µM unless noted
About 83,000 compounds went through this panel and 20% of them were active in at least one assay; those are over-represented in the sample as a whole.

{"columns": ["molecule", "experimental-target", "uom", "growth"],
 "data": [
  ["C#C[C@]1(O)CC[C@H]2[C@@H]3CC=C4c5sc(N(C)c6ccccc6)nc5CC[C@]4(C)[C@H]3CC[C@@]21C", "MALME-3M melanoma", "%", 110],
  ["CC(C)Sc1nc(-c2ccccc2)c(C#N)c(N2CCOCC2)n1", "MALME-3M melanoma", "%", 36.5],
  ["C1=CC(c2nn3c(-c4ccccc4)nnc3s2)=Cc2ccccc2O1", "MALME-3M melanoma", "%", 74.1],
  ["CCOC(=O)C1=C(C)NC(C)=C(C(=O)OC(C)C)C1c1cccc(C#N)c1 (centres undefined)", "MALME-3M melanoma", "%", 97.2],
  ["Cc1[nH]c(C(=O)Nc2ccc(C(N)=O)cc2N2CCOC(C)C2)c(Cl)c1Cl (centres undefined)", "MALME-3M melanoma", "%", 99.1],
  ["O=C1C(SCc2ccccc2)=C(Cl)CN1c1ccccc1", "MALME-3M melanoma", "%", 94.6],
  ["N#Cc1c(-c2cccs2)c(C#N)c(=O)n(Cc2nc3ccccc3[nH]2)c1N", "MALME-3M melanoma", "%", 107],
  ["CC(C)(C)OC(=O)Nc1ccc(-c2cccc(Oc3ccc4nnc(Cl)n4n3)c2)cc1", "MALME-3M melanoma", "%", 106],
  ["O=C(CCCCCC/C=C\\c1csc(Br)n1)NO", "MALME-3M melanoma", "%", 66.7],
  ["CCOC(=O)C(=O)Nc1ccc2c(ccn2C(=O)c2cccc(F)c2)c1", "MALME-3M melanoma", "%", 102],
  ["Cc1nc(N)sc1-c1csc(Nc2ccc(C(F)(F)F)cc2)n1", "MALME-3M melanoma", "%", 10.1],
  ["O=C(CSc1nnc(-c2ccc(Cl)cc2)n1-c1ccccc1)Nc1ccc(Cl)cc1", "MALME-3M melanoma", "%", 51],
  ["C#Cc1cc(OC)c(C(=O)Nc2ccc(F)cc2C(=O)Nc2cccc(S(=O)(=O)C(F)(F)F)c2)cn1", "MALME-3M melanoma", "%", -33.4],
  ["CSc1ccc(C(=NNS(=O)(=O)c2ccc(C)cc2)c2ccc(Cl)cc2)cc1", "MALME-3M melanoma", "%", 89.9],
  ["CN1CCN(CC#CCn2c3c(c4ccccc42)C[C@]2(C)[C@H]4CC=C5[C@@H]6CC(C)(C)CC[C@]6(C(=O)N6CCOCC6)CC[C@@]5(C)[C@]4(C)CC[C@H]2C3(C)C)CC1", "MALME-3M melanoma", "%", 83.3],
  ["O=C(CSc1nc2ccccc2c(=O)n1-c1ccc(Cl)cc1)N/N=C/c1ccc(Oc2ccc(Cl)cc2)cc1", "MALME-3M melanoma", "%", -39.4],
  ["O=C(/C=C/Nc1ccc(S(=O)(=O)Nc2ncccn2)cc1)c1ccc(N=Cc2c(O)[nH]c3ccccc23)cc1", "MALME-3M melanoma", "%", 127],
  ["CC(C)[C@H]1c2[nH]c3ccccc3c2C[C@H]2C(=O)N(CCCCCCC(=O)NO)CC(=O)N12", "MALME-3M melanoma", "%", 31.1],
  ["NNc1nnc2nc(Nc3ccccc3)nc(Nc3ccc(S(N)(=O)=O)cc3)n12", "MALME-3M melanoma", "%", 101]
]}

====

- Tested on: UACC-257 melanoma
- assay-overview: NCI-60 one-dose screen, 48 h
- assay-conditions: 10 µM unless noted
This is part of a sample that, as a whole, favours compounds with a hit. Of some 83,000 tested, about 20% had one in any assay. Activity calls are given as the source filed them. The calls were made as follows: active = growth percent below 10; inactive = the rest.
Outcomes: T = active, F = inactive

{"columns": ["compound-structure", "class-name"],
 "data": [
  ["C=C(C)[C@@H]1CC[C@]2(COCCCNCCCN)CC[C@]3(C)[C@H](CC[C@@H]4[C@@]5(C)CC[C@H](O)C(C)(C)[C@@H]5CC[C@]43C)[C@@H]12", "T"],
  ["COc1ccc(/C=N/NC(=O)c2c(N)nn(C)c2Nc2ccccc2)cc1Oc1ccccc1", "F"],
  ["Cn1cc(-c2nnc(N)nc2-c2c[nH]c3ccc(Br)cc23)c2cc(Br)ccc21", "F"],
  ["CN1CCC[C@]2(C)[C@H]3CC[C@@H]4[C@@H]5[C@H]6OC[C@@]5(CCC6(C)C)CC[C@@]4(C)[C@]3(C)CC[C@H]2C1(C)C", "F"]
]}

====

A collection of compounds and their measured growth
- Test system: HCC-2998 colon
- assay-overview: NCI-60 one-dose screen, 48 h (100 = growth as untreated, 0 = no growth, -100 = all killed)
- assay-conditions: 10 µM unless noted
This is part of a sample that, as a whole, favours compounds with a hit. Of some 83,000 tested, about 20% had one in any assay.

{"columns": ["compound-structure", "growth [%]"],
 "data": [
  ["Cc1ccc(C(=O)Nc2ccc(CNCCN3CCOCC3)c(C(F)(F)F)c2)cc1C#Cc1cnc2cccnn12", 6.09],
  ["CC(=O)Nc1ccccc1-c1nc2ccccc2s1", 99.7],
  ["N#Cc1c(-c2cccs2)cc(-c2cnccn2)nc1SCC(=O)N/N=C/c1ccc(Cl)cc1", 119],
  ["Cc1cccc(N2CCN(C3=C(Cl)C(=O)c4ncccc4C3=O)CC2)c1", 107],
  ["COc1cc2cc(Oc3ccc(NC(=O)Nc4ccc(F)c(C(F)(F)F)c4)cc3)c(C)nc2cc1OCCN(C)C", 104]
]}
